test: NCI Yeast Anticancer Drug Screen. Data for the sgs1 mgt1 strain (AID 161);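 note: 0% = growth of cultures given vehicle only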; conditions: S. cerevisiae sgs1 mgt1 strain, at 50.0 µM, stronger effect = higher value
About 79,000 compounds went through this panel and 15% of them were active in at least one assay; those are over-represented in the sample as a whole.
experimental readout: growth inhibition (%)
Lab book: enter the figure in %, no units written.

Lab note: Cc1c(Cc2ccccc2)c(N2CCOCC2)n2c(nc3ccccc32)c1C#N gave growth inhibition of 0.65

Lab note: CCOC(=O)c1ccc(N[C@@H]2c3cc4c(cc3C(c3cc(OC)c(O)c(OC)c3)[C@H]3C(=O)OCC32)OCO4)cc1 (some centres undefined) gave growth inhibition of 89.2

Lab note: COc1ccc2nc3c([N+](=O)[O-])ccc(NCCCN(C)C)c3c(NCCCN(C)C)c2c1 gave growth inhibition of 11.7

Lab note: CC(C)=CC1CC(=O)C1(C)Sc1ccccc1 (centres undefined) gave growth inhibition of 24.2

Lab note: CCOC(=O)c1ccc(N=Cc2ccc(N(CCC#N)S(=O)(=O)c3ccccc3)cc2C)cc1 gave growth inhibition of -20

Lab note: CCc1nc(-c2ccccc2)nc2c1nc(-c1ccc(C)cc1)n2Nc1ccccc1 gave growth inhibition of -2.95

Lab note: c1ccc(C2=Nc3ccccc3-c3ccccc3N2)cc1 gave growth inhibition of -6.05

Lab note: COc1ccc(/C(C#N)=C\c2ccc(N(C)C)cc2)cc1 gave growth inhibition of 3.1

Lab note: N#CC(CC(=O)c1ccccc1)c1ccc(Cl)cc1 (centres undefined) gave growth inhibition of -6.7

Lab note: Cc1ccc(-c2cc(=S)n(-c3ccccc3)c3nc(=S)n(-c4ccccc4)c(N)c23)cc1 gave growth inhibition of 18.1

Lab note: O=C(O)CSC1=NNC2(C(=O)N1)c1ccccc1-c1ccccc12 gave growth inhibition of 18.4

Lab note: CCOC(=O)C(=O)C(C(=O)c1ccccn1)c1nc2n(c1O)C(=N)N=N2 (centres undefined) gave growth inhibition of -3.1

Lab note: O=[N+]([O-])c1cc(C(F)(F)F)ccc1F gave growth inhibition of -2.3

Lab note: CCOC1(c2ccccc2)NC(=O)NC1(OCC)c1ccccc1 (centres undefined) gave growth inhibition of 18
